# Lookup of reported pKd keyed by entry
Molecular target: HLA-A*03:01
Experiment: IEDB peptide-MHC binding, purified MHC/competitive/fluorescence; filed as Kd, often an IC50 or EC50 that approximates it; bounds were set here for any values at or beyond the usual limits of such assays
Conditions: source organism: Salmonella enterica subsp. enterica serovar Typhi
pKd: −log10 of the molar value.

# RESIDUES, CENSORING QUALIFIER, pKd
measured = [
    ("GTTEVNGLY", "=", 5.67),
    ("ISANANFSY", "≤", 4.70),
    ("KTVRYWHRF", "≤", 4.70),
    ("ITSKEVFTY", "=", 5.64),
]

----------
Molecular target: HLA-A*11:01
Assay: IEDB peptide-MHC binding, purified MHC/direct/fluorescence; filed as Kd, often an IC50 or EC50 that approximates it; bounds were set here for any values at or beyond the usual limits of such assays
Conditions: source organism: Mycobacterium tuberculosis str. Haarlem

# RESIDUES, Kd
measured = [
    ("IMANRAQVL", "≥ 20 µM"),
]

----------
Molecular target: HLA-A*02:01
Test: IEDB peptide-MHC binding, purified MHC/competitive/radioactivity; filed as Kd, often an IC50 or EC50 that approximates it; bounds were set here for any values at or beyond the usual limits of such assays
Conditions: source organism: Trypanosoma cruzi
pKd: −log10 of the molar value.
MEASURED QUANTITY: pKd

# RESIDUES, TESTED TARGET, MEASURED QUANTITY, EXPERIMENTAL RESULT
measured = [
    ("EVLRPTTLV", "HLA-A*02:01", "pKd", 4.86),
]

----------
Target: HLA-B*58:01
Test: IEDB peptide-MHC binding, cellular MHC/competitive/fluorescence; bounds were set here for any values at or beyond the usual limits of such assays
Details: source organism: Human herpesvirus 4 strain B95-8

# RESIDUES, TESTED TARGET, IC50 [µM]
rows = [
    ("ATLNICNFW", "HLA-B*58:01", 5),
]

----------
Overview of reported pKd across a group of sequences:
Biological target: HLA-B*40:01
Test: IEDB peptide-MHC binding, purified MHC/competitive/radioactivity; filed as Kd, often an IC50 or EC50 that approximates it; bounds were set here for any values at or beyond the usual limits of such assays
Settings: source organism: Dengue virus 3 Martinique/1243/1999
pKd: −log10 of the molar value.

# RESIDUES, pKd
records = [
    ("TENILTVLL", 7.91),
    ("METLLLLGL", 7.09),
    ("KEENMVKSL", 6.81),
    ("EEALKGLPI", 5.47),
]

----------
Target: HLA-B*27:05
Experiment: IEDB peptide-MHC binding, purified MHC/direct/fluorescence; filed as Kd, often an IC50 or EC50 that approximates it; bounds were set here for any values at or beyond the usual limits of such assays
Conditions: source organism: Entamoeba histolytica
pKd: −log10 of the molar value.

# RESIDUES, pKd
data = [
    ("KLMPGSIYV", "≤ 4.70"),
]

----------
# pKd listing for each entry below
Molecular target: HLA-A*31:01
Assay: IEDB peptide-MHC binding, purified MHC/direct/fluorescence; filed as Kd, often an IC50 or EC50 that approximates it; bounds were set here for any values at or beyond the usual limits of such assays
Conditions: source organism: Camelpox virus M-96
pKd: −log10 of the molar value.
MEASURED QUANTITY: pKd

# RESIDUES, TESTED TARGET, EXPERIMENTAL RESULT
measured = [
    ("NSNINVINY", "HLA-A*31:01", "≤ 4.70"),
    ("KELENEYYF", "HLA-A*31:01", "≤ 4.70"),
]
